// IC50 lookup, one value per entry
# Tested on: RWPE-1
# PROTOCOL_DETAILS: Cytotoxicity against human RWPE1 cells assessed as cell growth inhibition after 24 hrs by MTT assay
# Type: cell-based
# DETAILS: RWPE-1, 24 h

| COMPOUND | IC50 |
| --- | --- |
| CCCCCC[C@@H]1CC(=O)C[C@H]2c3cc(OCc4ccccc4)c(OCc4ccccc4)cc3CCN12 (relative stereo) | > 20 µM |
| Cc1cc(C)cc(COc2cc3c(cc2OCc2cc(C)cc(C)c2)[C@@H]2C[C@H](O)C[C@@H](C)N2CC3)c1 (racemic) | 5.06 µM |
| C[C@@H]1C[C@H](O)C[C@H]2c3cc4c(cc3CCN12)OCO4 | > 20 µM |
| C[C@]1(O)C[C@@H](c2ccccc2)N2CCc3cc(OCc4ccccc4)c(OCc4ccccc4)cc3[C@@H]2C1 | > 20 µM |
| C[C@@H]1CC(=O)C[C@H]2c3cc(OCc4cc(F)cc(F)c4)c(OCc4cc(F)cc(F)c4)cc3CCN12 (relative stereo) | > 20 µM |
| C[C@@H]1CC(=O)C[C@H]2c3cc4c(cc3CCN12)OCO4 (relative stereo) | > 20 µM |
| O[C@]1(c2ccccc2)C[C@@H](c2ccccc2)N2CCc3cc(OCc4ccccc4)c(OCc4ccccc4)cc3[C@@H]2C1 | > 20 µM |
| COc1ccc([C@@H]2CC(=O)C[C@H]3c4cc(OCc5ccccc5)c(OCc5ccccc5)cc4CCN23)cc1 (relative stereo) | > 20 µM |
| CC1(C)CC(=O)C[C@H]2c3cc(OCc4ccccc4)c(OCc4ccccc4)cc3CCN21 | > 20 µM |
| C[C@@H]1CC(=O)C[C@H]2c3cc(OCc4ccc(Br)cc4)c(OCc4ccc(Br)cc4)cc3CCN12 (relative stereo) | > 20 µM |
| C[C@@H]1C[C@@](C)(O)C[C@H]2c3cc(OCc4cc(F)cc(F)c4)c(OCc4cc(F)cc(F)c4)cc3CCN12 | 4.45 µM |
| CCCCCCOc1cc2c(cc1OCCCCCC)[C@@H]1CC(=O)C[C@@H](C)N1CC2 (relative stereo) | > 20 µM |
| COc1cc([C@@H]2CC(=O)C[C@H]3c4cc(OCc5ccccc5)c(OCc5ccccc5)cc4CCN23)cc(OC)c1OC (relative stereo) | > 20 µM |
| O[C@@H]1C[C@@H](c2ccc(-c3ccccc3)cc2)N2CCc3cc(OCc4ccccc4)c(OCc4ccccc4)cc3[C@@H]2C1 | 4.42 µM |
| O=C1C[C@@H](c2ccc([N+](=O)[O-])cc2)N2CCc3cc(OCc4ccccc4)c(OCc4ccccc4)cc3[C@@H]2C1 | > 20 µM |
| CCCCCC[C@@H]1C[C@@H](O)C[C@H]2c3cc(OCc4ccccc4)c(OCc4ccccc4)cc3CCN12 | > 20 µM |
| C[C@@H]1C[C@@H](O)C[C@H]2c3cc(OCc4ccccc4)c(OCc4ccccc4)cc3CCN12 | 1.84 µM |

* * *

# Tested on: DU-145
# PROTOCOL_DETAILS: Cytotoxicity against human DU145 cells assessed as cell growth inhibition after 24 hrs by MTT assay
# Format: functional, cell-based
# DETAILS: DU-145, 24 h
OBSERVED_PROPERTY: IC50

| COMPOUND | READING |
| --- | --- |
| CC1(C)CC(=O)C[C@H]2c3cc(OCc4ccccc4)c(OCc4ccccc4)cc3CCN21 | > 20 µM |
| CC[C@@H]1CC(=O)C[C@H]2c3cc(OCc4ccccc4)c(OCc4ccccc4)cc3CCN12 (relative stereo) | > 20 µM |
| COc1cc2c(cc1OC)[C@@H]1C[C@@H](O)C[C@@H](c3ccccc3)N1CC2 | > 20 µM |
| CCCCCCOc1cc2c(cc1OCCCCCC)[C@@H]1C[C@@H](O)C[C@@H](C)N1CC2 | > 20 µM |
